experimental.readout: melting point

In the examples that follow, each entry is paired with its recorded melting point.
compound	melting point
O=C(/C=C/c1ccccc1)Oc1ccc2ccccc2c1 [Compound 22]	109 to 110 °C
CC1(C)C2CCC1(C)[C@H](OC(=O)/C=C/c1cccc(Cl)c1Cl)C2 (stereo partly shown) [Compound 14]	86 to 87 °C
CC1(C)C2CCC1(C)C(OC(=O)C=Cc1ccc(Br)cc1)C2 (stereo not drawn) [Compound 4, 4-Bromocinnamic Acid (−)-bornyl Ester]	71 to 74 °C
O=C(/C=C/c1ccccc1)OC12CC3CC(CC(C3)C1)C2 [Compound 21, Cinnamic Acid Adamantyl Ester]	66 °C
CC1(C)C2CCC1(C)C(OC(=O)C=Cc1ccc(Cl)cc1)C2 (stereo not drawn) [Compound 3, 4-Chlorocinnamic Acid (−)-bornyl Ester]	80 to 83 °C
Cc1ccc(C(C)C)c(OC(=O)/C=C/c2ccc(O)c(O)c2)c1 [Compound 10, Caffeic Acid Thymyl Ester]	115 to 117 °C

--- query ---
[Q] Identify melting point associated with the compound CC1(C)C2CCC1(C)[C@H](OC(=O)/C=C/c1ccc(Cl)cc1Cl)C2 (stereo partly shown) [Compound 17]
[A] 90 to 92 °C
